As shown below, each of these molecules has a reported pIC50 value.
target: V600E mutant B-RAF (Homo sapiens, UniProt P15056, V600E); assay: V600E Mutant B-RAF 33P Assay
Sequence (P15056 whole entry V600E): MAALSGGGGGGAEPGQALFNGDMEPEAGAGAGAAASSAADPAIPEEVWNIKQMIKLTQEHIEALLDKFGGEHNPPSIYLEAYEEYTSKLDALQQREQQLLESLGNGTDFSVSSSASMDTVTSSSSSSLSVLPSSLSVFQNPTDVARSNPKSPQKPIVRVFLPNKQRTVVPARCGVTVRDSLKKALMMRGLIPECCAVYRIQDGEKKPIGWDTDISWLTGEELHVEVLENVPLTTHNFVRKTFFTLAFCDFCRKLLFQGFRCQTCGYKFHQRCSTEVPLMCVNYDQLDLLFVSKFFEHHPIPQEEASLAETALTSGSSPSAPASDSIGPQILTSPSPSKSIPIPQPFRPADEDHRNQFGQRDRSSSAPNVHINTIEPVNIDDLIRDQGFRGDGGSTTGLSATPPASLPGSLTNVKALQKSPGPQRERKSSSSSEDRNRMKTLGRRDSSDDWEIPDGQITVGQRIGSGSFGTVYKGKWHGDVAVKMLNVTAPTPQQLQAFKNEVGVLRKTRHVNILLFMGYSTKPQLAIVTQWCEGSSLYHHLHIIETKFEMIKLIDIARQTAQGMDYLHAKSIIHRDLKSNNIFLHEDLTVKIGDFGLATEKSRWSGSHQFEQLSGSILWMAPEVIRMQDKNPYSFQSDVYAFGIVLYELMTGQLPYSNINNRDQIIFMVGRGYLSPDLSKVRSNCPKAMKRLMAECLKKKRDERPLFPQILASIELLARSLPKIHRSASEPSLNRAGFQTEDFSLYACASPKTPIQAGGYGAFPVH
pIC50: −log10 of the molar value.

Worked cases, answers included:
## Task Fill in the blank: the reported pIC50 of CC[C@@H](CO)Nc1nc(-c2cccc(NC(=O)Nc3ccc(C(F)(F)F)cc3)c2)c2c(N)c(C(N)=O)sc2n1 [Example 259] is ____.
## Result 5.00 to 7.00

## Task Okay, and NC(=O)c1sc2nc(NC3CC3)nc(-c3ccnc(O)c3)c2c1N [Example 237] ?
## Result 4.70 to 5.00

## Task Entry to check: COc1cc(-c2nc(NC3CC3)nc3sc(C(N)=O)c(N)c23)ccc1C(F)(F)F [Example 233]
## Result 5.00 to 7.00

Continuing:
## Task Returns the measured pIC50 for the input molecule. Input: NC(=O)c1sc2nc(NC3CC3)nc(-c3cccc(NC(=O)Nc4ccc(F)cc4)c3)c2c1N [Example 252]
## Result 5.00 to 7.00

----------
Overview of recorded melting point for various molecules

## Task Any idea what its melting point is? The molecule is "NC(=O)c1sc2ncnc(-c3cccc(NC(=O)Nc4ccccc4C(F)(F)F)c3)c2c1N"
## Result 172 to 175 °C

## Task Record: "NC(=O)c1sc2ncnc(-c3cccc(NC(=O)Nc4cccc(C(F)(F)F)c4)c3)c2c1N"
## Result 201 to 203 °C

## Task // same read-out, input: "NC(=O)c1sc2ncnc(-c3cccc(NC(=O)Nc4cccnc4)c3)c2c1N"
## Result 199 to 200 °C

## Task Can you check "NC(=O)c1sc2ncnc(-c3cc4c(c(OCc5ccccc5)c3)CCO4)c2c1N" next?
## Result 239 °C

## Task // repeat for "NC(=O)c1sc2ncnc(-c3cccc(NC(=O)Nc4ccncc4)c3)c2c1N" and report
## Result 177 to 179 °C

Now, please, on to the next molecule.
## Task Given the molecule "NC(=O)c1sc2ncnc(-c3cc(O)c4c(c3)OCC4)c2c1N" , what is its reported melting point?
## Result 285 °C

----------
target: V600E mutant B-RAF (Homo sapiens, UniProt P15056, V600E); experiment: V600E Mutant B-RAF 33P Assay
We begin with a simple list: items and their reported IC50.

## Task What IC50 value was documented for this compound, "NC(=O)c1sc2nc(NC3CC3)nc(-c3ccc(C(F)(F)F)cc3)c2c1N" ?
## Result 0.1 to 10 µM

## Task Do the same for "NC(=O)c1sc2ncnc(-c3cccc(NC(=O)Nc4cccc(C(F)(F)F)c4)c3)c2c1N" please
## Result 0.1 to 10 µM

## Task Same question for "NC(=O)Cc1nc(-c2ccc(Cl)c(Cl)c2)c2c(N)c(C(N)=O)sc2n1" please.
## Result 0.1 to 10 µM

## Task Field entry: "CC[C@@H](CO)Nc1nc(-c2ccc(Cl)c(Cl)c2)c2c(N)c(C(N)=O)sc2n1"
## Result 0.1 to 10 µM

## Task Ok, now "NC(=O)c1sc2nc(NC3CC3)nc(-c3ccc(Cl)nc3)c2c1N"
## Result 0.1 to 10 µM

## Task Another compound: "C[C@@H](CO)Nc1nc(-c2cccc(NC(=O)Nc3ccc(C(F)(F)F)cc3)c2)c2c(N)c(C(N)=O)sc2n1"
## Result 0.1 to 10 µM

// next entry
## Task Value lookup for IC50; key = "CC(C)[C@@H](CO)Nc1nc(-c2ccc(Cl)c(Cl)c2)c2c(N)c(C(N)=O)sc2n1"
## Result 0.1 to 10 µM
